# EXPERIMENTAL SYSTEM: AxCT mask27 EpCAM H90.2 L061 version 1
ASSAY METRIC: Percent cleavage (%)

PROTEIN | ASSAY METRIC | UNITS LABEL | VALUE MEASURED
MMP-7 (protein) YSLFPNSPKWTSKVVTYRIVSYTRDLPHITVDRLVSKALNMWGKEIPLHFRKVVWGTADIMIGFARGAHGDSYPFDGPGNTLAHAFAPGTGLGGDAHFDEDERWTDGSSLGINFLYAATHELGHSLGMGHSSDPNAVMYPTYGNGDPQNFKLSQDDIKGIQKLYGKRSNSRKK | Percent cleavage | % | 35
Matriptase (protein) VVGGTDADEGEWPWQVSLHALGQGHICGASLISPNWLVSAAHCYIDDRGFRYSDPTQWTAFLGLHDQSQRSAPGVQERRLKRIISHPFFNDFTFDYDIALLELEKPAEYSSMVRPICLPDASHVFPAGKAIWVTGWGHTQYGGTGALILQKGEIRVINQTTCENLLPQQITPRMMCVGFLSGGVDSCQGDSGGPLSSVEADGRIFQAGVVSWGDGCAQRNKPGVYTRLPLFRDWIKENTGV | Percent cleavage | % | 22
Neutrophil Elastase (protein) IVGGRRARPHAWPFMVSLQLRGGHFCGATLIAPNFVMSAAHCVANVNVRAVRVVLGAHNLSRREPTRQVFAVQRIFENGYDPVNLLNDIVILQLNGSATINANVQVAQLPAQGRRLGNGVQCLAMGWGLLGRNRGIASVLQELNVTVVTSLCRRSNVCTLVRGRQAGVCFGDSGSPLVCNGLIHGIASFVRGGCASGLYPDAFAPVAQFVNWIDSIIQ | Percent cleavage | % | 14
MMP-1 (protein) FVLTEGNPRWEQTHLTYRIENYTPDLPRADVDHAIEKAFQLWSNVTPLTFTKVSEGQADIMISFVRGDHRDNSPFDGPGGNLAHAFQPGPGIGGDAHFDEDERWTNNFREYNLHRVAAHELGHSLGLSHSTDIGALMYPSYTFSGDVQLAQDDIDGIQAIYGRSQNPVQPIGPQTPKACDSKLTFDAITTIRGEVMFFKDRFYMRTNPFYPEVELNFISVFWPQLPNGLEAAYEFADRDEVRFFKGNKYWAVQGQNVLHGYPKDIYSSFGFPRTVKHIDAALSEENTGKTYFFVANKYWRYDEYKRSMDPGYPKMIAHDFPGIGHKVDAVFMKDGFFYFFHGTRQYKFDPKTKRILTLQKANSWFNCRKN | Percent cleavage | % | 0

Origin of the recorded values: patent US20240336909
